System: 695427-040-R-J1-PDC complex spheroid viability;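 note: viability read after seven days of drug exposure; 100% = DMSO vehicle control viability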
Assay: Anticancer human tumor 695427-040-R-J1-PDC patient-derived colon adenocarcinoma cell line growth inhibition [RAS]
Conditions: second compound 0.3 µM; first compound 0.0316 µM; active compounds read low
Response field class: string, computed from recorded viability, T/C by ranges label 0: < 40%; label 1: ≥ 40% and < 80%; label 2: ≥ 80%

Q) In plain terms, what class is Nc1ccn(C2OC(CO)C(O)C2(F)F)c(=O)n1 (stereo not given) + CCn1c(-c2cc(N3CCN(C)CC3)cnc2C(C)OC)c2c3cc(ccc31)-c1csc(n1)CC(NC(=O)C1CC1C)C(=O)N1CCCC(N1)C(=O)OCC(C)(C)C2 ?
A) label 0

Q) In plain terms, what class is CC(=O)OC12COC1CC(O)C1(C)C(=O)C(O)C3=C(C)C(OC(=O)C(O)C(NC(=O)OC(C)(C)C)c4ccccc4)CC(O)(C(OC(=O)c4ccccc4)C21)C3(C)C (stereo not given) + CCn1c(-c2cccnc2C(C)OC)c2c3cc(ccc31)N1CCOC(CC(NC(=O)C(C(C)C)N(C)C(=O)C3(F)CCN(C(=O)C#CC(C)(C)N(C)C)CC3)C(=O)N3CCCC(N3)C(=O)OCC(C)(C)C2)C1 ?
A) label 1

Q) In plain terms, what class is Cc1nc(N2CCC3(CC2)COC(C)C3N)c(CO)nc1Sc1ccnc(N)c1Cl (stereo not given) + CCn1c(-c2cccnc2C(C)OC)c2c3cc(ccc31)N1CCOC(CC(NC(=O)C(C(C)C)N(C)C(=O)C3(F)CCN(C(=O)C#CC(C)(C)N(C)C)CC3)C(=O)N3CCCC(N3)C(=O)OCC(C)(C)C2)C1 ?
A) label 2

Q) In plain terms, what class is C=CC(=O)N1CCN(c2nc(OCC3CCCN3C)nc3c(F)c(-c4nc(N)cc(C)c4C(F)(F)F)c(Cl)cc23)C(C)C1 (stereo not given) + CCn1c(-c2cccnc2C(C)OC)c2c3cc(ccc31)N1CCOC(CC(NC(=O)C(C(C)C)N(C)C(=O)C3(F)CCN(C(=O)C#CC(C)(C)N(C)C)CC3)C(=O)N3CCCC(N3)C(=O)OCC(C)(C)C2)C1 ?
A) label 2

Q) In plain terms, what class is CC(Nc1ccc2c(c1)OCCn1cc(N3C(=O)OCC3C(F)F)nc1-2)C(N)=O (stereo not given) + CCn1c(-c2cccnc2C(C)OC)c2c3cc(ccc31)N1CCOC(CC(NC(=O)C(C(C)C)N(C)C(=O)C3(F)CCN(C(=O)C#CC(C)(C)N(C)C)CC3)C(=O)N3CCCC(N3)C(=O)OCC(C)(C)C2)C1 ?
A) label 1

Q) In plain terms, what class is NC1c2ccccc2OC12CCN(c1cnc3c(N4CCCc5ncccc54)n[nH]c3n1)CC2 (stereo not given) + CCn1c(-c2cccnc2C(C)OC)c2c3cc(ccc31)N1CCOC(CC(NC(=O)C(C(C)C)N(C)C(=O)C3(F)CCN(C(=O)C#CC(C)(C)N(C)C)CC3)C(=O)N3CCCC(N3)C(=O)OCC(C)(C)C2)C1 ?
A) label 1

Q) In plain terms, what class is CC(C)n1nc(-c2ccc3oc(N)nc3c2)c2c(N)ncnc21 + CCn1c(-c2cc(N3CCN(C)CC3)cnc2C(C)OC)c2c3cc(ccc31)-c1csc(n1)CC(NC(=O)C1CC1C)C(=O)N1CCCC(N1)C(=O)OCC(C)(C)C2 ?
A) label 0

Q) In plain terms, what class is C=CC(=O)N1CCN(c2nc(OCC3CCCN3C)nc3c(F)c(-c4nc(N)cc(C)c4C(F)(F)F)c(Cl)cc23)C(C)C1 (stereo not given) + CCn1c(-c2cc(N3CCN(C)CC3)cnc2C(C)OC)c2c3cc(ccc31)-c1csc(n1)CC(NC(=O)C1CC1C)C(=O)N1CCCC(N1)C(=O)OCC(C)(C)C2 ?
A) label 1

Q) In plain terms, what class is O=C(c1ccc(F)c(F)c1Nc1ccc(I)cc1F)N1CC(O)([C@@H]2CCCCN2)C1 + CCn1c(-c2cccnc2C(C)OC)c2c3cc(ccc31)N1CCOC(CC(NC(=O)C(C(C)C)N(C)C(=O)C3(F)CCN(C(=O)C#CC(C)(C)N(C)C)CC3)C(=O)N3CCCC(N3)C(=O)OCC(C)(C)C2)C1 ?
A) label 1

Q) In plain terms, what class is CCN1CCN(Cc2ccc(Nc3ncc(F)c(-c4cc(F)c5nc(C)n(C(C)C)c5c4)n3)nc2)CC1 + CCn1c(-c2cc(N3CCN(C)CC3)cnc2C(C)OC)c2c3cc(ccc31)-c1csc(n1)CC(NC(=O)C1CC1C)C(=O)N1CCCC(N1)C(=O)OCC(C)(C)C2 ?
A) label 0

Q) In plain terms, what class is O=C(c1ccc(F)c(F)c1Nc1ccc(I)cc1F)N1CC(O)([C@@H]2CCCCN2)C1 + CCn1c(-c2cc(N3CCN(C)CC3)cnc2C(C)OC)c2c3cc(ccc31)-c1csc(n1)CC(NC(=O)C1CC1C)C(=O)N1CCCC(N1)C(=O)OCC(C)(C)C2 ?
A) label 0

Q) In plain terms, what class is CCN1CCN(Cc2ccc(Nc3ncc(F)c(-c4cc(F)c5nc(C)n(C(C)C)c5c4)n3)nc2)CC1 + CCn1c(-c2cccnc2C(C)OC)c2c3cc(ccc31)N1CCOC(CC(NC(=O)C(C(C)C)N(C)C(=O)C3(F)CCN(C(=O)C#CC(C)(C)N(C)C)CC3)C(=O)N3CCCC(N3)C(=O)OCC(C)(C)C2)C1 ?
A) label 2

Q) In plain terms, what class is CC1(O)CCCC1n1c(=O)c(C(F)F)cc2cnc(NC3CCN(S(C)(=O)=O)CC3)nc21 (stereo not given) + CCn1c(-c2cccnc2C(C)OC)c2c3cc(ccc31)N1CCOC(CC(NC(=O)C(C(C)C)N(C)C(=O)C3(F)CCN(C(=O)C#CC(C)(C)N(C)C)CC3)C(=O)N3CCCC(N3)C(=O)OCC(C)(C)C2)C1 ?
A) label 1
